molecular target: T1, human LILRB5 (human, UniProt O75023 24-590); assay: FACS, 293F-hLILRB5 cells
T1 construct: whole, on cells; also called hLILRB5
T1 sequence (O75023 24-590): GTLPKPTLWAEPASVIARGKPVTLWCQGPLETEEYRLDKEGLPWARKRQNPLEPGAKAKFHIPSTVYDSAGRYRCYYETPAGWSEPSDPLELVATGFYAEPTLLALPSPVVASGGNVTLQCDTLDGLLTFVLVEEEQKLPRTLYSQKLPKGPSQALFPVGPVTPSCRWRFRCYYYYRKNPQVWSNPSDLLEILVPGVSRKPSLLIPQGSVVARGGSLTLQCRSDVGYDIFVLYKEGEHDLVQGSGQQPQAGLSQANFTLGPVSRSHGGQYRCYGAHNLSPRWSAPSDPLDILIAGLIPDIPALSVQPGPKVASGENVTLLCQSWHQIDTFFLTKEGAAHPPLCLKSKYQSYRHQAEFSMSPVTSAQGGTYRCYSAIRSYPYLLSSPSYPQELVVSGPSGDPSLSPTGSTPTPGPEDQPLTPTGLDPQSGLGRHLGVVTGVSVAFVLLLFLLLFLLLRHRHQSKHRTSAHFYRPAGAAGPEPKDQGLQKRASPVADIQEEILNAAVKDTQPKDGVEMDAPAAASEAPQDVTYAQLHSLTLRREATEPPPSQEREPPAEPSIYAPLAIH
Class T: MFI at least 20 MFI. Class F: MFI below 20 MFI.

Study these solved cases before continuing.
BINDER | CLASS_ASSIGNMENT
36-F4-H1-D9 (antibody, V domains shown, mouse monoclonal hybridoma antibody) VH: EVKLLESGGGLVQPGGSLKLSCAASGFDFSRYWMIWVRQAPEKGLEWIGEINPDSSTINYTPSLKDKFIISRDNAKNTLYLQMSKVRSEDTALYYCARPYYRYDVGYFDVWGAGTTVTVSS VL: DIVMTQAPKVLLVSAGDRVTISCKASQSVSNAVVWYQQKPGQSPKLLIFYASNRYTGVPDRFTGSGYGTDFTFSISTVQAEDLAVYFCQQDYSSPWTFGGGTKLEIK | F
27-D11-C2-A10 (antibody, V domains shown, mouse monoclonal hybridoma antibody) VH: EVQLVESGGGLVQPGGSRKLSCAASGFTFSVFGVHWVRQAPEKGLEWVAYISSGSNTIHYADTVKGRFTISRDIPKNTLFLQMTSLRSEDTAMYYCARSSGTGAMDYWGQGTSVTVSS VL: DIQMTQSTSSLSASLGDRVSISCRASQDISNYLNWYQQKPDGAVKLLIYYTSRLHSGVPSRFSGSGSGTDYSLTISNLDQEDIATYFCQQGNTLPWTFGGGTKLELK | F
42-C8-A12-F3-D11 (antibody, V domains shown, mouse monoclonal hybridoma antibody) VH: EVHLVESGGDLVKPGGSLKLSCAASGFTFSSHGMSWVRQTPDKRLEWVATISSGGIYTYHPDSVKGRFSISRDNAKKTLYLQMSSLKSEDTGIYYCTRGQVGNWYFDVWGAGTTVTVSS VL: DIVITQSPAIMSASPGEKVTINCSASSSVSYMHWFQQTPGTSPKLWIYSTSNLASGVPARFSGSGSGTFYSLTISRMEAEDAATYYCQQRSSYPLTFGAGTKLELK | T
2-H8-C9-F7-E2 (antibody, V domains shown, mouse monoclonal hybridoma antibody) VH: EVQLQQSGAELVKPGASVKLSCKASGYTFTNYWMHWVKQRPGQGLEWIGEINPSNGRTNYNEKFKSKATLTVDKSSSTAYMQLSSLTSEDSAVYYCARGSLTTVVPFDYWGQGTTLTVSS VL: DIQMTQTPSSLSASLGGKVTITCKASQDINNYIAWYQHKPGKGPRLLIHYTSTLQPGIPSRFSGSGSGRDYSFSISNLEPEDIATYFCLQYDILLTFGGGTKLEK | T

Now look at this one.
Does 43-D12-F3-G11 (antibody, V domains shown, mouse monoclonal hybridoma antibody) VH: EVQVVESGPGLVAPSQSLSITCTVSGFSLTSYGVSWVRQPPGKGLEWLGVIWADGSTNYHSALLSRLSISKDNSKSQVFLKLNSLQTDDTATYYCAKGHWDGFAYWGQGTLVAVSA VL: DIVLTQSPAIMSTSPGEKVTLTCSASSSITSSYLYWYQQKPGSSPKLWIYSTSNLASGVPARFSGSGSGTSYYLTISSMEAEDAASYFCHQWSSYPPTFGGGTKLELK have a reported MFI of at least 20 MFI? F
